- Procedure details: Influencing factor stability study on crystal forms (light, high temperature, high humidity, 30 days)
- Type: physicochemical
- Condition context: 92.5% RH, 30 days
# Purity (%) listing for each entry below
Number only, in %; omit the unit.

Example entries and their recorded answers appear below.
| Compound | Experimental result |
| --- | --- |
| C=CC(=O)N1CCN2C(=O)c3cc(F)c(-c4ccc(F)c5sc(N)c(C#N)c45)c4c(Cl)nn(c34)CC[C@H]2C1 [crystal form L] | 99.1 |
| C=CC(=O)N1CCN2C(=O)c3cc(F)c(-c4ccc(F)c5sc(N)c(C#N)c45)c4c(Cl)nn(c34)CC[C@H]2C1 [crystal form F] | 97.9 |

Quick one: Purity (%) for C=CC(=O)N1CCN2C(=O)c3cc(F)c(-c4ccc(F)c5sc(N)c(C#N)c45)c4c(Cl)nn(c34)CC[C@H]2C1 [crystal form M] ? 99.2

// query Purity (%) value for entry C=CC(=O)N1CCN2C(=O)c3cc(F)c(-c4ccc(F)c5sc(N)c(C#N)c45)c4c(Cl)nn(c34)CC[C@H]2C1 [crystal form G] 98.5

# lookup: Purity (%) of C=CC(=O)N1CCN2C(=O)c3cc(F)c(-c4ccc(F)c5sc(N)c(C#N)c45)c4c(Cl)nn(c34)CC[C@H]2C1 [crystal form C] 98.1

Would you kindly share the measured Purity (%) for C=CC(=O)N1CCN2C(=O)c3cc(F)c(-c4ccc(F)c5sc(N)c(C#N)c45)c4c(Cl)nn(c34)CC[C@H]2C1 [crystal form H] ? 98.3
